The values you see were collected from PubChem BioAssay AID1745847.

- Test: CMV-Luciferase Counterscreen for Inhibitors of ATXN expression; also: nearly all actives have a fitted effect of over 55% in size
- Condition Info: HEK-293 CMV-luciferase reporter, luminescence, 24 h; series mostly up to 57.5 µM
The campaign covered roughly 2,100 compounds. About 670 (32%) were called active. Another 50% or so got no clear call; they are omitted. Calls follow the shape of the dose curve; as a rule, active = well fitted inhibition curve with a large enough effect; inconclusive = small, poorly fitted or top-dose-only effect; inactive = no such curve, though single readings can be large or run the other way. The list shows a part of the results.
Labels: class 1 = active, class 0 = inactive

{"Compound": "CC(=O)N(C1=C(Cl)C(=O)c2ccccc2C1=O)C1CCCCC1", "Class Label": "class 1"}
{"Compound": "O=C(c1ccco1)N1CCCC(c2nc(-c3ccc(S(=O)(=O)NCc4ccccc4)cc3)no2)C1 (stereo not given)", "Class Label": "class 1"}
{"Compound": "Cc1ccc(C(C)C)c(OCc2ccc(C(=O)N/N=C/c3ccc(O)cc3O)cc2)c1", "Class Label": "class 1"}
{"Compound": "NC(=O)c1cccc(-c2ccnc3c2CC(C(=O)Nc2cccc(C(F)(F)F)c2)O3)c1 (stereo not given)", "Class Label": "class 1"}
{"Compound": "COc1ccc(CC(N)c2csc(NC(=O)c3ccccc3OC)n2)cc1 (stereo not given)", "Class Label": "class 0"}
